Recorded values, source paper PMC9504748.

TARGET DESC: ACLY (Homo sapiens, UniProt P53396)
Construct: His; made in house; host or cells: Escherichia coli BL21(DE3)
Sequence (P53396 whole entry): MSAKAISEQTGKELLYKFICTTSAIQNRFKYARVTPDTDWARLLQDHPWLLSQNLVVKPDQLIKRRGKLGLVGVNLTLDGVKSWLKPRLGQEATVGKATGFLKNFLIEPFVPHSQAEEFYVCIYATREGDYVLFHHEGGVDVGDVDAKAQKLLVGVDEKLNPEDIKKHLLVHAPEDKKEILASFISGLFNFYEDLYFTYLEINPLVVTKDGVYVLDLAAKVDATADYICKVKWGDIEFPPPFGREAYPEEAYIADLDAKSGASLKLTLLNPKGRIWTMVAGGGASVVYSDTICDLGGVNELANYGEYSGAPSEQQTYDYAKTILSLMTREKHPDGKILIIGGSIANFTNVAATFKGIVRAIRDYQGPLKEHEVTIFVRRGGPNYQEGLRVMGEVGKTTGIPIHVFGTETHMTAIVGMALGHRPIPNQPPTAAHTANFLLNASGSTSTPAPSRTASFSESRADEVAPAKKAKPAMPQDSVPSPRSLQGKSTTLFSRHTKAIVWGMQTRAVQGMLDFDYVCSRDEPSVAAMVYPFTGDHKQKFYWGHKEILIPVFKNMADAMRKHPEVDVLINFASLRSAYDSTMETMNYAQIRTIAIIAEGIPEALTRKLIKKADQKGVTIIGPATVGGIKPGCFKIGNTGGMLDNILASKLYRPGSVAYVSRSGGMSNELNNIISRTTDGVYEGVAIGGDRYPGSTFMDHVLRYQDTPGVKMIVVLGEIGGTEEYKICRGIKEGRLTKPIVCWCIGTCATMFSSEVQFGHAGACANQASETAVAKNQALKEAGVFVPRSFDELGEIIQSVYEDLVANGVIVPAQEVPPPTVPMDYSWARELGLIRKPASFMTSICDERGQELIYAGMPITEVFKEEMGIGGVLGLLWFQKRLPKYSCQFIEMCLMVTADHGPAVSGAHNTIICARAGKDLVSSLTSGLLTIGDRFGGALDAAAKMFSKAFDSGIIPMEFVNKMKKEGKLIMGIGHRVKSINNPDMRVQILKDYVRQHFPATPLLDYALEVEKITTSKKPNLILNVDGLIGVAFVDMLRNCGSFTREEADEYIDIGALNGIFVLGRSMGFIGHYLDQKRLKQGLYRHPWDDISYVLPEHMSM
PROCEDURE SUMMARY: Enzymatic kinetic studies (Michaelis-Menten, Lineweaver-Burk)
Format: biochemical
CONDITIONS: ATP as substrate
VALUE KIND: pKi
Answers are plain numbers, as −log10 of the molar value.

Give a short answer stating reported pKi for O=c1c(O)c(-c2ccc(O)cc2)oc2c(O)c(O)cc(O)c12 .
6.54

###

TARGET DESC: ACLY (Homo sapiens, UniProt P53396)
Construct: His; made in house; host or cells: Escherichia coli BL21(DE3)
PROCEDURE SUMMARY: ACLY enzymatic inhibition assay (ADP-Glo Kinase Assay);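 further: purified recombinant His-tagged human ACLY, compounds preincubated with enzyme 15 min, then ADP formed measured as luciferase luminescence after ADP-Glo reagent depletes leftover ATP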
Type: biochemical
CONDITIONS: concentration-response curves
VALUE KIND: IC50 (nM)
Give bare numbers, in nM.

O=c1c(O)c(-c2ccc(O)c(O)c2)oc2cc(O)cc(O)c12 : 860
O=C(O)[C@H]1O[C@@H](Oc2cc(O)c3c(=O)cc(-c4ccc(O)c(O)c4)oc3c2)[C@H](O)[C@@H](O)[C@@H]1O [compound 5, Luteolin 7-O-glucuronide] : 1470
C[C@@H]1O[C@@H](O[C@H]2[C@H](Oc3cc(O)c4c(=O)cc(-c5ccc(O)c(O)c5)oc4c3)O[C@H](CO)[C@@H](O)[C@@H]2O)[C@H](O)[C@H](O)[C@H]1O : 1430
C[C@@H]1O[C@@H](Oc2cc(O)c3c(=O)c(O)c(-c4ccc(O)c(O)c4)oc3c2)[C@H](O)[C@H](O)[C@H]1O : 570
O=c1cc(-c2ccc(O)cc2)oc2cc(O)cc(O)c12 : 19100

Hey, quick one: what's IC50 for each of these?
1. O=c1c(O)c(-c2ccc(O)cc2O)oc2cc(O)cc(O)c12
2. O=C1c2c(O)cc(O)cc2OC(c2ccc(O)c(O)c2)C1O (stereo not shown)
3. O=c1c(O[C@@H]2O[C@H](CO)[C@H](O)[C@H](O)[C@H]2O)c(-c2ccc(O)c(O)c2)oc2cc(O)cc(O)c12 [compound 6, Hyperoside]
4. O=c1cc(-c2ccc(O)c(O)c2)oc2cc(O)c([C@@H]3O[C@H](CO)[C@@H](O)[C@H](O)[C@H]3O)c(O)c12

[4070, 2540, 1530, 1860]

Given O=C(O)[C@H]1O[C@@H](Oc2cc3oc(-c4ccc(O)cc4)cc(=O)c3c(O)c2O)[C@H](O)[C@@H](O)[C@@H]1O , report its IC50 on ACLY (Homo sapiens, UniProt P53396).
3770
